Tested on: large crabgrass (Digitaria sanguinalis, DIGSA)
Test protocol: Pre-emerge test, greenhouse herbicide activity screening
Format: in vivo
Applied conditions: pre-emerge, rate 250 g ai/ha, phytotoxicity rating 0-100 at 14 days after application
Readout: Pre-emerge Herbicidal Activity DIGSA
Please give the numeric answer without any surrounding text.

COc1c(Cl)cc(F)c(-n2nnn(CCCF)c2=O)c1NC(=O)c1ccc2ccccc2c1    80

Tell me the measured Pre-emerge Herbicidal Activity DIGSA of COc1c(Cl)cc(F)c(-n2c(=O)n3n(c2=O)CCCC3)c1N , please.
60

Would you kindly repeat that for Cc1c(Cl)cc(F)c(-n2c(=O)cc(C(F)(F)F)n(C)c2=O)c1NC(=O)OCc1cccc([N+](=O)[O-])c1 ?
100

Please give the result for O=C(Nc1cc(Cl)ccc1-n1c(=O)n2n(c1=S)CCCC2)c1ccc2ccccc2c1 too.
30

Try this compound too: Cc1nn(-c2c(F)cc(Cl)cc2NC(=O)c2ccc(F)cc2F)c(=O)n1C(F)F
10

What would you report for COc1cccc(COC(=O)Nc2c(C)c(Cl)cc(F)c2-n2c(=O)cc(C(F)(F)F)n(C)c2=O)c1 ?
100

Now consider C#CCOc1c(Cl)cc(Cl)c(-n2nnn(CCCF)c2=O)c1N .
0

Same for CC(C)Oc1c(Cl)cc(F)c(N2C(=O)C3=C(CCCC3)C2=O)c1NC(=O)c1ccc(F)cc1F
80

Next: COc1c(Cl)cc(F)c(-n2ncc(C(F)(F)F)cc2=O)c1NC(=O)c1ccc2ccccc2c1
100

###

Tested on: common ragweed (Ambrosia artemisizfolia L., AMBEL)
Test protocol: Post-emerge test, greenhouse herbicide activity screening
Type: in vivo
Applied conditions: Rate 250 g ai/ha; rating scale 0-100 (0 no damage, 100 complete death); 14 days after application
This section presents compounds with their documented Post-emerge Herbicidal Activity, phytotoxicity rating AMBEL values.
# respond with the number and nothing more

CCOC(=O)C(Br)Cc1c(OC)c(Cl)cc(F)c1-n1c(=O)cc(C(F)(F)F)n(C)c1=O (single isomer, unassigned)    40
COc1c(Cl)cc(F)c(-n2c(=O)cc(C(F)(F)F)n(C)c2=O)c1CC(Cl)C(=O)OCC(F)(F)C(F)F (stereo not shown)    100

# get_value(readout= Post-emerge Herbicidal Activity, phytotoxicity rating AMBEL, system= common ragweed (Ambrosia artemisizfolia L., AMBEL)) for COc1c(Cl)cc(F)c(-n2c(=O)cc(C(F)(F)F)n(C)c2=O)c1CC(Cl)C(=O)OCC(C)C (single isomer, unassigned)
70

Continue with COc1c(Cl)cc(F)c(-n2c(=O)cc(C(F)(F)F)n(C)c2=O)c1CC(C)(Cl)C(=O)OCC(F)(F)C(F)F (stereo not shown)
100

Then this compound: COc1c(Cl)cc(F)c(-n2c(=O)cc(C(F)(F)F)n(C)c2=O)c1CC(C)(Cl)C(=O)OCC1CCCO1 (stereo not shown)
100

Please answer likewise for CCOC(=O)C(Cl)(C#N)Cc1c(OC)c(Cl)cc(F)c1-n1c(=O)cc(C(F)(F)F)n(C)c1=O (stereo not shown)
20

Continue with COCCOC(=O)C(C)(Cl)Cc1c(OC)c(Cl)cc(F)c1-n1c(=O)cc(C(F)(F)F)n(C)c1=O (stereo not shown)
100

###

Tested on: redroot pigweed (Amaranthus retroflexus, AMARE)
Test protocol: Post-emerge test, greenhouse herbicide activity screening
Format: in vivo
Applied conditions: 250 g ai/ha; phytotoxicity rating 0-100 (0 no damage, 100 complete death), 14 days after application
Some compounds, each annotated with its measured Post-emerge Herbicidal Activity AMARE.
Number only, please.

// worked examples, Post-emerge Herbicidal Activity AMARE included
COc1c(Cl)cc(F)c(-n2c(=O)cc(C(F)(F)F)n(C)c2=O)c1NC(=O)c1cccc(C)c1    100
CCOc1c(Cl)cc(F)c(-n2c(=O)cc(C(F)(F)F)n(C)c2=O)c1N    70
COc1c(Cl)cc(F)c(-n2c(=O)c(N)c(C(F)(F)F)n(C)c2=O)c1N    30
COc1c(Cl)cc(F)c(-n2c(=O)cc(C(F)(F)F)n(C)c2=O)c1NC(=O)C=C(C)C    50
COc1c(Cl)cc(F)c(-n2c(=O)cc(C(F)(F)F)n(C)c2=O)c1N=CN(C)C    30

What Post-emerge Herbicidal Activity AMARE value was documented for this compound, Cn1c(C(F)(F)F)cc(=O)n(-c2c(F)cc(Cl)c(OCC#N)c2NC(=O)C(F)(F)F)c1=O ?
30

Now consider Cn1c(C(F)(F)F)cc(=O)n(-c2c(F)cc(Cl)c(OCc3ccccc3)c2N)c1=O and answer again.
80

Same question for CCOC(=O)CC(=O)Nc1c(OC(=O)CC(=O)OCC)c(Cl)cc(F)c1-n1c(=O)cc(C(F)(F)F)n(C)c1=O please.
100

###

This section presents molecules with their documented phytotoxicity rating AMARE values.
Test system: redroot pigweed (Amaranthus retroflexus, AMARE)
Test protocol: Post-emerge test, greenhouse herbicide activity screening
Assay type: in vivo
Applied conditions: post-emerge, 63 g ai/ha, 14 days after application, rating scale 0-100 (0 no damage, 100 complete death)
API note: the answer field is a bare number with no unit suffix.

COc1c(Cl)cc(F)c(-n2c(=O)cc(C(F)(F)F)n(C)c2=O)c1NC(=O)OCc1cc(C)cc(C)c1 [4-37]    100

Quick one: phytotoxicity rating AMARE for COc1c(Cl)cc(F)c(-n2c(=O)cc(C(F)(F)F)n(C)c2=O)c1NC(=O)Oc1ccccc1C(C)(C)C [4-27] ?
60

Same read-out for COC(=O)N(C(=O)OC)c1c(OC)c(Cl)cc(F)c1-n1c(=O)cc(C(F)(F)F)n(C)c1=O [4-2] ?
50

Let us now turn to CNC(=O)N(C(=O)NC)c1c(OC)c(Cl)cc(F)c1-n1c(=O)cc(C(F)(F)F)n(C)c1=O [Compound 3-1]
0

Also need COc1c(Cl)cc(F)c(-n2c(=O)cc(C(F)(F)F)n(C)c2=O)c1NC(=O)OCc1cc(C)ccc1C [4-38] , thanks.
100

Please answer likewise for COc1c(Cl)cc(F)c(-n2c(=O)cc(C(F)(F)F)n(C)c2=O)c1NC(=O)OCc1ccc2c(c1)OCO2 [4-41]
100

###

Tested on: sicklepod (Cassia obtusifolia, CASOB)
Test protocol: Post-emerge test, greenhouse herbicide activity screening
Assay type: in vivo
Applied conditions: 250 g ai/ha; phytotoxicity rating 0-100 (0 no damage, 100 complete death), 14 days after application
Readout: Post-emerge Herbicidal Activity CASOB
I only need the number, thanks.

// worked examples, Post-emerge Herbicidal Activity CASOB included
COC(=O)C=CCOc1c(Cl)cc(F)c(-n2c(=O)cc(C(F)(F)F)n(C)c2=O)c1N [Compound 1-20]    50
CCOc1c(Cl)cc(F)c(-n2c(=O)cc(C(F)(F)F)n(C)c2=O)c1N [Compound 1-61]    70
Cc1c(Cl)cc(F)c(-n2c(=O)cc(C(F)(F)F)n(C)c2=O)c1N [Compound 1-37]    90
COc1c(Cl)cc(F)c(-n2c(=O)cc(C(F)(F)F)n(C)c2=O)c1N(C(=O)C1CC1)C(=O)C1CC1 [2-18]    10
Cn1c(C(F)(F)F)cc(=O)n(-c2c(F)cc(Cl)c(OCc3ccccc3)c2N)c1=O [Compound 1-22]    0

Form: Entry = CCOC(=O)C(C)Nc1cc(OC(F)F)cc(F)c1-n1c(=O)cc(C(F)(F)F)n(C)c1=O (stereo not drawn) [Compound 1-53] | System = sicklepod (Cassia obtusifolia, CASOB) | Post-emerge Herbicidal Activity CASOB = ____
95

Now try CCOC(=O)CC(=O)Nc1c(OC(=O)CC(=O)OCC)c(Cl)cc(F)c1-n1c(=O)cc(C(F)(F)F)n(C)c1=O [2-16] .
80

Now give it for COc1c(Cl)cc(F)c(-n2c(=O)cc(C(F)(F)F)n(C)c2=O)c1N(C)C [Compound 1-11] too.
0

Also COc1c(Cl)cc(F)c(-n2c(=O)cc(C(F)(F)F)n(C)c2=O)c1NC(=O)CC#N [2-14] ?
10

Same question for CCc1ccc(C(=O)Nc2c(OCC#N)c(Cl)cc(F)c2-n2c(=O)cc(C(F)(F)F)n(C)c2=O)cc1 [2-28] please.
20

Same question for CCOC(=O)C(C)Nc1c(OC)c(Cl)cc(F)c1-n1c(=O)cc(C(F)(F)F)n(C)c1=O (stereo not drawn) [Compound 1-55] please.
20

Moving on to C#CCOc1c(Cl)cc(F)c(-n2c(=O)cc(C(F)(F)F)n(C)c2=O)c1N [Compound 1-19]
30

###

System: lambsquarters (Chenopodium album, CHEAL)
Test protocol: Pre-emerge test, greenhouse herbicide activity screening
Type: in vivo
Applied conditions: pre-emerge, 63 g ai/ha, 14 days after application, rating scale 0-100
Readout: phytotoxicity rating CHEAL
When you answer, write just the number.

Previously resolved entries follow.
Cn1c(C(F)(F)F)cc(=O)n(-c2ccc(Cl)cc2C(=O)c2ccccc2)c1=O [14-57]    0
CCOC(=O)C(Cl)Cc1c(C)c(Cl)cc(F)c1-n1c(=O)cc(C(F)(F)F)n(C)c1=O (stereo not shown) [14-54]    10
COc1c(Cl)cc(F)c(-n2c(=O)cc(C(F)(F)F)n(C)c2=O)c1SC(C)C [17-2]    60

Next item in the queue.
Request body: readout phytotoxicity rating CHEAL, system lambsquarters (Chenopodium album, CHEAL), query COc1c(Cl)cc(F)c(-n2c(=O)cc(C(F)(F)F)n(C)c2=O)c1CC(C)(Cl)C(=O)OCCSC (stereo not shown) [14-48] . Return the value.
50
